Recorded pIC50 by entry
target: UniProt P62942; test: Binding affinity to FKBP12 by competitive fluorescence polarization assay; conditions: read-out: IC50
pIC50: −log10 of the molar value.
measurement-kind: pIC50

>>> recorded_value("COc1ccc(CC[C@@H](OC(=O)[C@@H]2CCCCN2S(=O)(=O)c2cc(Cl)cc(Cl)c2)c2cccc(OCC(=O)O)c2)cc1OC")
6.10
>>> recorded_value("COc1ccc(CC[C@@H](OC(=O)[C@@H]2CCCCN2S(=O)(=O)c2cc(Cl)c(O)c(Cl)c2)c2cccc(OCCN3CCOCC3)c2)cc1OC")
6.94
>>> recorded_value("COc1ccc(CC[C@@H](OC(=O)[C@@H]2CCCCN2S(=O)(=O)c2cc(Cl)c(NC(C)=O)c(Cl)c2)c2cccc(OCC(=O)O)c2)cc1OC")
5.93
>>> recorded_value("COc1ccc(CC[C@@H](OC(=O)[C@@H]2CCCCN2S(=O)(=O)c2cc(C(F)(F)F)cc(C(F)(F)F)c2)c2cccc(OCC(=O)O)c2)cc1OC")
5.29
>>> recorded_value("COc1ccc(OCCOC(=O)[C@@H]2CCCCN2S(=O)(=O)c2ccc3ncsc3c2)cc1OC")
6.70
>>> recorded_value("COc1ccc(CC[C@@H](OC(=O)[C@@H]2CCCCN2S(=O)(=O)c2cc(F)cc(F)c2)c2cccc(OCC(=O)O)c2)cc1OC")
6.00
>>> recorded_value("COc1ccc(CC[C@@H](OC(=O)[C@@H]2CCCCN2S(=O)(=O)c2ccc3[nH]c(=O)sc3c2)c2cccc(OCCN3CCOCC3)c2)cc1OC")
8.52
>>> recorded_value("CCC(C)(C)C(=O)C(=O)N1CCCC[C@H]1C(=O)O[C@H](CCc1ccc(OC)c(OC)c1)c1cccc(OCC(=O)O)c1")
6.94
>>> recorded_value("COc1ccc(CC[C@@H](OC(=O)[C@@H]2CCCCN2S(=O)(=O)c2cc(Br)cc(C(F)(F)F)c2)c2cccc(OCC(=O)O)c2)cc1OC")
5.62
>>> recorded_value("COc1ccc(CC[C@@H](OC(=O)[C@@H]2CCCCN2S(=O)(=O)c2ccc3[nH]c(=O)oc3c2)c2cccc(OCC(=O)O)c2)cc1OC")
6.12
>>> recorded_value("COc1ccc(CC[C@@H](OC(=O)[C@@H]2CCCCN2S(=O)(=O)c2cc(Cl)c(OC)c(Cl)c2)c2cccc(OCC(=O)O)c2)cc1OC")
6.64
>>> recorded_value("O=C(OC(CCCc1cccnc1)CCCc1cccnc1)[C@@H]1CCCCN1S(=O)(=O)c1cc(Cl)c(O)c(Cl)c1")
6.06

====

Each item that follows carries a reported pIC50.
target: Peptidyl-prolyl cis-trans isomerase FKBP5 (Homo sapiens, UniProt Q13451); assay: Binding affinity to FKBP51 FK1 domain by competitive fluorescence polarization assay; settings: read-out: IC50
Sequence (Q13451 whole entry, the tested form may be a part): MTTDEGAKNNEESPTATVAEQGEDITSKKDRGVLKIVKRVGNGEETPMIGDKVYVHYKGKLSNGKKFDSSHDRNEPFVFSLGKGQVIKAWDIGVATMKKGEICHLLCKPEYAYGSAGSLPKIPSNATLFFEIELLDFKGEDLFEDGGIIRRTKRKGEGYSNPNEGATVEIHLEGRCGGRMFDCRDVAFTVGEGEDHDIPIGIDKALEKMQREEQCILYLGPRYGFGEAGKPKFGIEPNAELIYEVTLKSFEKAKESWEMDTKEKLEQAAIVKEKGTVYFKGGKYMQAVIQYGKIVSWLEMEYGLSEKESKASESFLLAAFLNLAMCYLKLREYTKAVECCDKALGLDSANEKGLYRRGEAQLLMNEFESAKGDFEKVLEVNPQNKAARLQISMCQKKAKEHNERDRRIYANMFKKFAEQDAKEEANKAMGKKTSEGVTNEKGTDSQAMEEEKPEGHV
pIC50: −log10 of the molar value.
measurement-kind: pIC50

>>> recorded_value("O=C(OC(CCCc1cccnc1)CCCc1cccnc1)[C@@H]1CCCCN1S(=O)(=O)c1cc(Cl)c(O)c(Cl)c1")
5.01
>>> recorded_value("COc1ccc(CC[C@@H](OC(=O)[C@@H]2CCCCN2S(=O)(=O)c2cc(Cl)c(NC(C)=O)c(Cl)c2)c2cccc(OCC(=O)O)c2)cc1OC")
4.79
>>> recorded_value("COc1ccc(CC[C@@H](OC(=O)[C@@H]2CCCCN2S(=O)(=O)c2cc(Cl)c(O)c(Cl)c2)c2cccc(OCC(=O)O)c2)cc1OC")
5.21
>>> recorded_value("COc1ccc(CC[C@@H](OC(=O)[C@@H]2CCCCN2S(=O)(=O)c2cccc(F)c2)c2cccc(OCC(=O)O)c2)cc1OC")
4.27
>>> recorded_value("COc1ccc(CC[C@@H](OC(=O)[C@@H]2CCCCN2S(=O)(=O)c2cccc(N)c2)c2cccc(OCC(=O)O)c2)cc1OC")
4.34
>>> recorded_value("COc1ccc(CC[C@@H](OC(=O)[C@@H]2CCCCN2S(=O)(=O)c2cccc([N+](=O)[O-])c2)c2cccc(OCC(=O)O)c2)cc1OC")
4.33
>>> recorded_value("COc1ccc(CC[C@@H](OC(=O)[C@@H]2CCCCN2S(=O)(=O)c2cccc(Br)c2)c2cccc(OCC(=O)O)c2)cc1OC")
4.80
>>> recorded_value("COc1ccc(CC[C@@H](OC(=O)[C@@H]2CCCCN2S(=O)(=O)c2cc(F)cc(F)c2)c2cccc(OCC(=O)O)c2)cc1OC")
4.05
>>> recorded_value("CCC(C)(C)C(=O)C(=O)N1CCCC[C@H]1C(=O)O[C@H](CCc1ccc(OC)c(OC)c1)c1cccc(OCC(=O)O)c1")
5.20
>>> recorded_value("COc1ccc(CC[C@@H](OC(=O)[C@@H]2CCCCN2S(=O)(=O)c2cccc(C#N)c2)c2cccc(OCC(=O)O)c2)cc1OC")
4.55
>>> recorded_value("COc1ccc(CC[C@@H](OC(=O)[C@@H]2CCCCN2S(=O)(=O)c2ccc3[nH]c(=O)sc3c2)c2cccc(OCCN3CCOCC3)c2)cc1OC")
5.69

====

biological target: Peptidyl-prolyl cis-trans isomerase FKBP5 (Homo sapiens, UniProt Q13451); experiment: Binding affinity to FKBP51 FK1 domain by competitive fluorescence polarization assay; conditions: read-out: IC50
pIC50: −log10 of the molar value.
measurement-kind: pIC50

>>> recorded_value("COc1ccc(CC[C@@H](OC(=O)[C@@H]2CCCCN2S(=O)(=O)c2ccc3ncsc3c2)c2cccc(OCC(=O)O)c2)cc1OC")
4.94
>>> recorded_value("COc1ccc(OCCOC(=O)[C@@H]2CCCCN2S(=O)(=O)c2ccc3ncsc3c2)cc1OC")
4.18
>>> recorded_value("COc1ccc(S(=O)(=O)N2CCCC[C@H]2C(=O)O[C@H](CCc2ccc(OC)c(OC)c2)c2cccc(OCC(=O)O)c2)cc1Cl")
4.53

====

biological target: Peptidyl-prolyl cis-trans isomerase FKBP1A (Homo sapiens); experiment: Binding affinity to FKBP12 by competitive fluorescence polarization assay; details: read-out: IC50
pIC50: −log10 of the molar value.
I would appreciate it if you labelled entries Satisfied when pIC50 is 6 or higher, otherwise Not satisfied.

>>> category_label("COc1ccc(CC[C@@H](OC(=O)[C@@H]2CCCCN2S(=O)(=O)c2ccc(Cl)c(Cl)c2)c2cccc(OCC(=O)O)c2)cc1OC")
"Not satisfied"
>>> category_label("COc1ccc(CC[C@@H](OC(=O)[C@@H]2CCCCN2S(=O)(=O)c2cccc(C#N)c2)c2cccc(OCC(=O)O)c2)cc1OC")
"Not satisfied"
>>> category_label("COc1ccc(CC[C@@H](OC(=O)[C@@H]2CCCCN2S(=O)(=O)c2cccc(Br)c2)c2cccc(OCC(=O)O)c2)cc1OC")
"Satisfied"
>>> category_label("COC(=O)c1cc(C(=O)OC)cc(S(=O)(=O)N2CCCC[C@H]2C(=O)O[C@H](CCc2ccc(OC)c(OC)c2)c2cccc(OCC(=O)O)c2)c1")
"Not satisfied"
>>> category_label("COc1ccc(CC[C@@H](OC(=O)[C@@H]2CCCCN2S(=O)(=O)c2cc(N)c3c(c2)CCO3)c2cccc(OCC(=O)O)c2)cc1OC")
"Not satisfied"
>>> category_label("COc1ccc(CC[C@@H](OC(=O)[C@@H]2CCCCN2S(=O)(=O)c2cc(Cl)c(NC(C)=O)c(Cl)c2)c2cccc(OCCN3CCOCC3)c2)cc1OC")
"Satisfied"
>>> category_label("COc1ccc(CC[C@@H](OC(=O)[C@@H]2CCCCN2S(=O)(=O)c2cccc(-c3ccncn3)c2)c2cccc(OCC(=O)O)c2)cc1OC")
"Not satisfied"
>>> category_label("COc1ccc(CC[C@@H](OC(=O)[C@@H]2CCCCN2S(=O)(=O)c2ccc3ncsc3c2)c2cccc(OCCN3CCOCC3)c2)cc1OC")
"Not satisfied"
>>> category_label("COc1ccc(CC[C@@H](OC(=O)[C@@H]2CCCCN2S(=O)(=O)c2cccc(N)c2)c2cccc(OCC(=O)O)c2)cc1OC")
"Not satisfied"
>>> category_label("COc1ccc(CC[C@@H](OC(=O)[C@@H]2CCCCN2S(=O)(=O)c2ccc(-c3ncccn3)cc2)c2cccc(OCC(=O)O)c2)cc1OC")
"Not satisfied"

====

biological target: Peptidyl-prolyl cis-trans isomerase FKBP1A (Homo sapiens, UniProt P62942); assay: Binding affinity to FKBP12 by competitive fluorescence polarization assay; settings: read-out: IC50
Sequence (P62942 whole entry): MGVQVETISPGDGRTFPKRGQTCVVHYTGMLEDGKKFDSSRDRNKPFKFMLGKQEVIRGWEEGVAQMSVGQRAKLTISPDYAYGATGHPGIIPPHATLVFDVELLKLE
pIC50: −log10 of the molar value.
Each entry below carries its reported pIC50.
measurement-kind: pIC50

>>> recorded_value("COc1ccc(CC[C@@H](OC(=O)[C@@H]2CCCCN2S(=O)(=O)c2ccc3[nH]c(=O)sc3c2)c2cccc(OCC(=O)O)c2)cc1OC")
7.68
>>> recorded_value("COc1ccc(CC[C@@H](OC(=O)[C@@H]2CCCCN2S(=O)(=O)c2cccc(-c3ccnc(C)n3)c2)c2cccc(OCC(=O)O)c2)cc1OC")
5.09
>>> recorded_value("COc1ccc(CC[C@@H](OC(=O)[C@@H]2CCCCN2S(=O)(=O)c2ccoc2)c2cccc(OCC(=O)O)c2)cc1OC")
5.00
>>> recorded_value("COc1ccc(CC[C@@H](OC(=O)[C@@H]2CCCCN2S(=O)(=O)c2cc3ccccc3s2)c2cccc(OCC(=O)O)c2)cc1OC")
5.34
>>> recorded_value("COc1ccc(S(=O)(=O)N2CCCC[C@H]2C(=O)O[C@H](CCc2ccc(OC)c(OC)c2)c2cccc(OCC(=O)O)c2)cc1Cl")
6.22
>>> recorded_value("COc1ccc(CC[C@@H](OC(=O)[C@@H]2CCCCN2S(=O)(=O)c2cc(Cl)c(O)c(Cl)c2)c2cccc(OCC(=O)O)c2)cc1OC")
6.17
>>> recorded_value("COc1ccc(CC[C@@H](OC(=O)[C@@H]2CCCCN2S(=O)(=O)c2ccc3ncsc3c2)c2cccc(OCC(=O)O)c2)cc1OC")
5.96
>>> recorded_value("COc1ccc(CC[C@@H](OC(=O)[C@@H]2CCCCN2S(=O)(=O)c2cccc(F)c2)c2cccc(OCC(=O)O)c2)cc1OC")
5.96
